molecular target: T1, recombinant human IL-6 (human, UniProt P05231 30-212); experiment: SPR (Biacore), supernatant IgG on Protein A, 25 C
T1 construct: Flowed in solution over the captured antibodies
T1 sequence (P05231 30-212 limits assumed): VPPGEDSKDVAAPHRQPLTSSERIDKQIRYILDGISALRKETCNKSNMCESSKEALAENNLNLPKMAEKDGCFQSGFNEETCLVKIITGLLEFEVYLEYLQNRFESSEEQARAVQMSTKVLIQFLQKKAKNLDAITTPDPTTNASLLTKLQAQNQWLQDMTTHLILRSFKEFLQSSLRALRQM

- Binder: "anti-IL-6 antibody, heavy chain G102D, light chain WT (antibody, IgG1, V domains shown, Full IgG1 tested; V domains derived as in m2) VH: EVQLVESGGGLVQPGGSLRLSCAASGFTFSPFAMSWVRQAPGKGLEWVAKISPGGSWTYYSDTVTGRFTFSLDTSKSTAYLQMNSLRAEDTAVYYCARQLWDYYALDIWGQGTLVTVSS VL: DIQLTQSPSSLSASVGDRVTITCSASISVSYMYWYQQKPGKAPKLLIYDMSNLASGVPSRFSGSGSGTDFTLTISSLQPEDFATYYCMQWSGYPYTFGQGTKVEIK"
  kon, M⁻¹ s⁻¹: 452000
- Binder: "anti-IL-6 antibody, heavy chain G26S, light chain WT (antibody, IgG1, V domains shown, Full IgG1 tested; V domains derived as in m2) VH: EVQLVESGGGLVQPGGSLRLSCAASSFTFSPFAMSWVRQAPGKGLEWVAKISPGGSWTYYSDTVTGRFTFSLDTSKSTAYLQMNSLRAEDTAVYYCARQLWGYYALDIWGQGTLVTVSS VL: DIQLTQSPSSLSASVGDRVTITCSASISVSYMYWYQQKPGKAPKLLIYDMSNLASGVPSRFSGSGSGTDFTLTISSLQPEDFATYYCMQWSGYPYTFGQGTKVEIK"
  kon, M⁻¹ s⁻¹: 551000
- Binder: "anti-IL-6 antibody, heavy chain Y103D, light chain WT (antibody, IgG1, V domains shown, Full IgG1 tested; V domains derived as in m2) VH: EVQLVESGGGLVQPGGSLRLSCAASGFTFSPFAMSWVRQAPGKGLEWVAKISPGGSWTYYSDTVTGRFTFSLDTSKSTAYLQMNSLRAEDTAVYYCARQLWGDYALDIWGQGTLVTVSS VL: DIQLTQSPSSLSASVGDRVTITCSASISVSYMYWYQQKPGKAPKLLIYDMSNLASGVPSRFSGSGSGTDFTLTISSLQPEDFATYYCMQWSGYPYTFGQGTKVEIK"
  kon, M⁻¹ s⁻¹: 737000

Reference source: patent US20240209076A1
